Test: Clearance in fasted C57BL6 mouse at 2 mg/kg, iv and 10 mg/kg, po by LC-MS-MS analysis
Type: ADME, organism-based
Conditions: in vivo
endpoint_name: clearance (mL/min/kg)
The reply should contain only the number, in mL/min/kg.

For reference, reported clearance for Cc1nnc(-c2ccc(N3CCC(Oc4ccccc4C(F)(F)F)CC3)nn2)s1 stands at 15

---

Assay: Oral bioavailability in rat
Type: ADME, organism-based
Conditions: in vivo
endpoint_name: bioavailability (%)
Report as a plain number; the unit % is understood.

Notebook: O=C(O)Cn1nnc(-c2cc(N3CCC(Oc4cc(F)ccc4Br)CC3)no2)n1 , bioavailability read as 28

---

Assay: Apparent permeability across pig LLC-PK1 cells
Assay type: ADME, cell-based, Sus scrofa
endpoint_name: Papp (×10⁻⁶ cm/s)
API: value field is a number in ×10⁻⁶ cm/s; no unit string.

The compound O=C(O)Cn1nnc(-c2cc(N3CCC(Oc4cc(F)ccc4Br)CC3)no2)n1 showed Papp equal to 3.8

---

Experiment: Ratio drug uptake in liver to plasma of C57BL6 mouse at 10 mg/kg, po measured 6 hrs post dose
Assay type: ADME, organism-based
Set-up: dose 10 mg/kg, route oral
Conditions: liver and plasma
endpoint_name: Kp at 6 h
The answer should be written as a number, with no unit following it.

Short answer for Cc1nnc(-c2ccc(N3CCC(Oc4ccccc4C(F)(F)F)CC3)nn2)s1 : Kp at 6 h was 14

Short answer for FC(F)(F)c1ccccc1OC1CCN(c2nnc(-c3nn[nH]n3)s2)CC1 : Kp at 6 h was 15

---

Test system: Zone of skin
Test: Drug level in skin of diet-induced obese C57BL6 mouse at 5 mg/kg, po QD
Type: ADME, organism-based
Set-up: dose 5 mg/kg, route oral
Details: in vivo, read-out: Drug uptake
endpoint_name: concentration

The compound Cc1nnc(-c2ccc(N3CCC(Oc4ccccc4C(F)(F)F)CC3)nn2)s1 showed concentration equal to 4 µM

---

Test system: Liver
Experiment: Drug level in liver of diet-induced obese C57BL6 mouse at 5 mg/kg, po QD
Format: ADME, organism-based
Design: dose 5 mg/kg, route oral
Conditions: in vivo, read-out: Drug uptake
endpoint_name: concentration (µM)
Lab book: enter the figure in µM, no units written.

The reported concentration of the compound Cc1nnc(-c2ccc(N3CCC(Oc4ccccc4C(F)(F)F)CC3)nn2)s1 was 10

---

Test: Volume of distribution in fasted C57BL6 mouse at 2 mg/kg, iv and 10 mg/kg, po by LC-MS-MS analysis
Assay type: ADME, organism-based
Conditions: in vivo
endpoint_name: Vd (L/kg)
Output spec: scalar in L/kg, unitless text.

Reported Vd of Cc1nnc(-c2ccc(N3CCC(Oc4ccccc4C(F)(F)F)CC3)nn2)s1 : 7

---

Test: Oral bioavailability in C57BL6 mouse at 10 mg/kg BID
Assay type: ADME, organism-based
Conditions: in vivo, in the assay text read “10 mg/kg” for “10 mg/kg BID”
endpoint_name: bioavailability

Entry O=C([O-])Cn1nnc(-c2cc(N3CCC(Oc4cc(F)ccc4Br)CC3)no2)n1.[Na+] ; bioavailability = 12%

---

Experiment: Clearance in fasted C57BL6 mouse at 2 mg/kg, iv and 10 mg/kg, po BID
Assay type: ADME, organism-based
Settings: in vivo
endpoint_name: clearance
Show the value, then the unit it is measured in.

Form: compound = O=C([O-])Cn1nnc(-c2cc(N3CCC(Oc4cc(F)ccc4Br)CC3)no2)n1.[Na+] ; clearance = 41 mL/min/kg

---

Test: Drug level in harderian gland of diet-induced obese C57BL6 mouse at 5 mg/kg, po QD
Type: ADME, organism-based
Set-up: dose 5 mg/kg, route oral
Conditions: in vivo, read-out: Drug uptake
endpoint_name: concentration (µM)
Give the number; µM is assumed, so skip it.

concentration reading for Cc1nnc(-c2ccc(N3CCC(Oc4ccccc4C(F)(F)F)CC3)nn2)s1 : 5

---

Biological target: UniProtKB P07308
Sequence (P07308 whole entry): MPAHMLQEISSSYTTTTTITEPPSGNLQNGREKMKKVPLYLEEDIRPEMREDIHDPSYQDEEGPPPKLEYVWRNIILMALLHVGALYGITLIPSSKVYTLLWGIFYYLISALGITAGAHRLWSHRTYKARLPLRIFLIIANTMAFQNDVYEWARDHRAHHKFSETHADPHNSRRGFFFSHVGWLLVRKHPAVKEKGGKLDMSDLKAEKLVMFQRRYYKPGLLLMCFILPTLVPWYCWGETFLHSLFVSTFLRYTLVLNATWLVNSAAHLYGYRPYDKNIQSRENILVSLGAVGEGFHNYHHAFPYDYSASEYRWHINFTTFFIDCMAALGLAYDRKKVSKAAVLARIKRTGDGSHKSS
Assay: Inhibition of SCD-1 activity in Sprague-Dawley rat microsome assessed as reduction in [I-14C] stearoyl CoA desaturation by scintillation counting
Format: microsomes
Could you please report measured pIC50 for the items listed next?
pIC50 field: float, defined as -log10 of concentration (mol/L).

The compound listed as O=C(O)Cn1nnc(-c2cc(N3CCC(Oc4cc(F)ccc4Br)CC3)no2)n1 shows pIC50 equal to 8.52

response.value for FC(F)(F)c1ccccc1OC1CCN(c2nnc(-c3nn[nH]n3)s2)CC1 (field: pIC50) = 6.56

Consider Fc1ccc(Br)c(OC2CCN(c3nnc(-c4nn[nH]n4)s3)CC2)c1 . Its measured pIC50 is 7.47

pIC50 reported for this compound O=C(O)Cn1nnc(-c2nnc(N3CCC(Oc4cc(F)ccc4Br)CC3)s2)n1 : 8.15

Form field pIC50, entry Cc1nnc(-c2ccc(N3CCC(Oc4ccccc4C(F)(F)F)CC3)nn2)s1 : 8.70

---

Target: Stearoyl-CoA desaturase (Homo sapiens, UniProt O00767)
Sequence (O00767 whole entry): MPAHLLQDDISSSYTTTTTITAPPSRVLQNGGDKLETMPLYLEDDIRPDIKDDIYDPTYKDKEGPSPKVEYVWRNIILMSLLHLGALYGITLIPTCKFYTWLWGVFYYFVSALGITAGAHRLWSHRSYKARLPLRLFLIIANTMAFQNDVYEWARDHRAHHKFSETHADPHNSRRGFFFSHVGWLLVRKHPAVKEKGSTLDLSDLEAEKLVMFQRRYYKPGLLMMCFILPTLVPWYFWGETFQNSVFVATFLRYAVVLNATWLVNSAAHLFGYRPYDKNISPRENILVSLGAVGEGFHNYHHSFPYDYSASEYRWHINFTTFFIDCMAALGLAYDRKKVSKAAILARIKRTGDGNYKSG
Experiment: Inhibition of SCD-1 activity in organic anion transporting polypeptides-deficient human HepG2 cells assessed as reduction in [I-14C] stearoyl CoA desaturation by scintillation counting
endpoint_name: pIC50
# pIC50 is unitless: minus log10 of the molar concentration; print number only

O=C(O)Cn1nnc(-c2nnc(N3CCC(Oc4cc(F)ccc4Br)CC3)s2)n1 yielded pIC50 of 6.04

The molecule identified as Fc1ccc(Br)c(OC2CCN(c3nnc(-c4nn[nH]n4)s3)CC2)c1 registered its pIC50 at 4.90

pIC50 reported for this molecule Cc1nnc(-c2ccc(N3CCC(Oc4ccccc4C(F)(F)F)CC3)nn2)s1 : 7.68

---

Experiment: AUC in plasma of fasted C57BL6 mouse at 2 mg/kg, iv and 10 mg/kg, po BID
Type: ADME, organism-based
endpoint_name: AUC (µM·h)
Give your result in µM·h as a bare value.

Given item O=C([O-])Cn1nnc(-c2cc(N3CCC(Oc4cc(F)ccc4Br)CC3)no2)n1.[Na+] , the value recorded as its AUC is 1

---

System: Liver
Test: Ratio drug uptake in liver to harderian gland of C57BL6 mouse at 10 mg/kg, po measured 6 hrs post dose
Assay type: ADME, organism-based
Parameters: dose 10 mg/kg, route oral
Settings: in vivo
endpoint_name: Ratio
// return a plain number; no unit text

Value of Ratio reported for the compound FC(F)(F)c1ccccc1OC1CCN(c2nnc(-c3nn[nH]n3)s2)CC1 is 330

// Fc1ccc(Br)c(OC2CCN(c3nnc(-c4nn[nH]n4)s3)CC2)c1 : Ratio value = 26

For this compound ( Cc1nnc(-c2ccc(N3CCC(Oc4ccccc4C(F)(F)F)CC3)nn2)s1 ), measured Ratio is 1.5

// O=C(O)Cn1nnc(-c2nnc(N3CCC(Oc4cc(F)ccc4Br)CC3)s2)n1 : Ratio value = 40

---

Experiment: Drug level in harderian gland of diet-induced obese C57BL6 mouse at 20 mg/kg, po BID
Assay type: ADME, organism-based
Design: dose 20 mg/kg, route oral
Conditions: in vivo, read-out: Drug uptake
endpoint_name: concentration

Query O=C(O)Cn1nnc(-c2cc(N3CCC(Oc4cc(F)ccc4Br)CC3)no2)n1 yields concentration of 0.9 µM

---

Target: Acyl-CoA desaturase 1 (Rattus norvegicus)
Assay: Inhibition of SCD-1 activity in Sprague-Dawley rat Hepatocytes expressing organic anion transporting polypeptides assessed as reduction in [I-14C] […] desaturation by scintillation counting
Type: cell-based, Hepatocyte
endpoint_name: log10 of IC50 (log10 of the value in nM)
Form field - Quantity: IC50; Unit: nM; Scale: log10

Per the record, Fc1ccc(Br)c(OC2CCN(c3nnc(-c4nn[nH]n4)s3)CC2)c1 has log10 of IC50 of 3.49

log10 of IC50 reported for this molecule FC(F)(F)c1ccccc1OC1CCN(c2nnc(-c3nn[nH]n3)s2)CC1 : 3.54

log10 of IC50 measured on Cc1nnc(-c2ccc(N3CCC(Oc4ccccc4C(F)(F)F)CC3)nn2)s1 = 2.20

Sample O=C(O)Cn1nnc(-c2cc(N3CCC(Oc4cc(F)ccc4Br)CC3)no2)n1 ; log10 of IC50 observed: 1.83

Lab note: O=C(O)Cn1nnc(-c2nnc(N3CCC(Oc4cc(F)ccc4Br)CC3)s2)n1 gave log10 of IC50 of 2.28
